# Test system: Rtkn
# assay-procedure: ToxTracker genotoxicity assay, Rtkn-GFP reporter
# stated-conditions: With S9 rat liver extract, at 50% cytotoxicity, 3 h exposure and 24 h recovery
quantity-kind: Rtkn GFP reporter induction level

molecule	reported
CCCCCCCCCC(=O)OCC(CN1CC1C)OC(=O)NCCCCCCn1c(=O)n(CCCCCCNC(=O)OC(COC(=O)CCCCCCCCC)CN2CC2C)c(=O)n(CCCCCCNC(=O)OC(COC(=O)CCCCCCCCC)CN2CC2C)c1=O (stereo not shown)	1.2
CCCCOCC(CN1CC1C)OC(=O)NCCCCCCn1c(=O)n(CCCCCCNC(=O)OC(COCCCC)CN2CC2C)c(=O)n(CCCCCCNC(=O)OC(COCCCC)CN2CC2C)c1=O (stereo not shown)	0.6
CC(CN1CC1C)OC(=O)NCCCCCCn1c(=O)n(CCCCCCNC(=O)OC(C)CN2CC2C)c(=O)n(CCCCCCNC(=O)OC(C)CN2CC2C)c1=O (stereo not shown)	0.9
CCCCOCC(CN1CC1(C)C)OC(=O)NCCCCCCn1c(=O)n(CCCCCCNC(=O)OC(COCCCC)CN2CC2(C)C)c(=O)n(CCCCCCNC(=O)OC(COCCCC)CN2CC2(C)C)c1=O (stereo not shown)	1.3

---

Overview of reported Rtkn GFP reporter induction level across a group of compounds:
# Tested on: Rtkn
# assay-procedure: ToxTracker genotoxicity assay, Rtkn-GFP reporter
# stated-conditions: Without S9 rat liver extract, at 10% cytotoxicity, 24 h exposure
quantity-kind: Rtkn GFP reporter induction level

compound	quantity-kind	reported
CCCCCCCCCC(=O)OCC(CN1CC1C)OC(=O)NCCCCCCn1c(=O)n(CCCCCCNC(=O)OC(COC(=O)CCCCCCCCC)CN2CC2C)c(=O)n(CCCCCCNC(=O)OC(COC(=O)CCCCCCCCC)CN2CC2C)c1=O (stereo not shown) [Composition 25-2]	Rtkn GFP reporter induction level	1.1
CC(CN1CC1C)OC(=O)NCCCCCCn1c(=O)n(CCCCCCNC(=O)OC(C)CN2CC2C)c(=O)n(CCCCCCNC(=O)OC(C)CN2CC2C)c1=O (stereo not shown) [Composition 16]	Rtkn GFP reporter induction level	1.2
CCCCOCC(CN1CC1C)OC(=O)NCCCCCCn1c(=O)n(CCCCCCNC(=O)OC(COCCCC)CN2CC2C)c(=O)n(CCCCCCNC(=O)OC(COCCCC)CN2CC2C)c1=O (stereo not shown) [Composition 1]	Rtkn GFP reporter induction level	0.8
CCCCOCC(CN1CC1(C)C)OC(=O)NCCCCCCn1c(=O)n(CCCCCCNC(=O)OC(COCCCC)CN2CC2(C)C)c(=O)n(CCCCCCNC(=O)OC(COCCCC)CN2CC2(C)C)c1=O (stereo not shown) [Compound. 15]	Rtkn GFP reporter induction level	1.2

Numbers sourced from patent US12398098B2.
